A compilation of published pIC50 results with Acrosin (Homo sapiens).
pIC50: −log10 of the molar value.
experimental.endpoint: pIC50

Worked examples, 5 compounds total:
* Cc1ccc(OC(=O)c2ccc(NC(=N)N)cc2)cc1 | 8.48
* N=C(N)Nc1ccc(-c2cc(C(=O)Nc3cccc(C(F)(F)F)c3)n[nH]2)cc1 | 4.62
* COc1ccc(NC(=O)c2cc(-c3ccc(NC(=N)N)cc3)[nH]n2)cc1OC | 5.46
* CCCCCN(CCCCC)CC(=O)Nc1nc2ccc(Br)cc2s1 | 3.27
* COc1ccccc1NC(=O)c1cc(-c2ccc(NC(=N)N)cc2)on1 | 5.08

(1) N=C(N)Nc1ccc(C(=O)Oc2ccc(Br)cc2)cc1
(2) COc1cccc(CNS(=O)(=O)c2ccc3nc(NC(=O)NCCO)[nH]c3c2)c1
(3) N=C(N)Nc1ccc(-c2cc(C(=O)Nc3cccc4ccccc34)n[nH]2)cc1
(4) CCOC(=O)c1cc(-c2ccc(NC(=O)c3ccc(Cl)cc3)cc2)on1
(5) COc1ccc(OC)c(NC(=O)c2cc(-c3ccc(NC(=N)N)cc3)[nH]n2)c1
Highest pIC50 first, then in falling order down to the smallest. Please list the labels according to the requested order.
1, 5, 3, 4, 2
(1: 8.46, 5: 5.90, 3: 4.61, 4: 3.42, 2: 2.14)
